Hello, the source for this data is patent US5811442A, in case you need it.

- target_desc: α4β2 receptor subtypes (Rattus norvegicus, UniProt P09483+P12390)
- Sequence (P09483 31-630): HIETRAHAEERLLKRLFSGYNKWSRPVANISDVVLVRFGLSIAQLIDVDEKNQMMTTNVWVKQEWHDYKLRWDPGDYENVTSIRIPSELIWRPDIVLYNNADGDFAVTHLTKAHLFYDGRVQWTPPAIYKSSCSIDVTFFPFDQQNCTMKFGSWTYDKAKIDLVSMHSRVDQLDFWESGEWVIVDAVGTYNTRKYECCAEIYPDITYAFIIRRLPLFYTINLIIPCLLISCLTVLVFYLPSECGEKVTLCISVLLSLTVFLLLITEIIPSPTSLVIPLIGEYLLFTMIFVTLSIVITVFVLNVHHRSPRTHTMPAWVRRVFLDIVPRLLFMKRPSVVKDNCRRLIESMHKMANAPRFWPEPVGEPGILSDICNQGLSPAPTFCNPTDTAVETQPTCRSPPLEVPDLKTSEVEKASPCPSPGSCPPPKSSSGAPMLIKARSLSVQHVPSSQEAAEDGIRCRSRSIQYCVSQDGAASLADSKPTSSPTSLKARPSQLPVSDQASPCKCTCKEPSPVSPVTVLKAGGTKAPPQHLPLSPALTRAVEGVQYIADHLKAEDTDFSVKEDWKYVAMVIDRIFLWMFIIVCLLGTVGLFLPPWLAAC
- Sequence (P12390 25-500): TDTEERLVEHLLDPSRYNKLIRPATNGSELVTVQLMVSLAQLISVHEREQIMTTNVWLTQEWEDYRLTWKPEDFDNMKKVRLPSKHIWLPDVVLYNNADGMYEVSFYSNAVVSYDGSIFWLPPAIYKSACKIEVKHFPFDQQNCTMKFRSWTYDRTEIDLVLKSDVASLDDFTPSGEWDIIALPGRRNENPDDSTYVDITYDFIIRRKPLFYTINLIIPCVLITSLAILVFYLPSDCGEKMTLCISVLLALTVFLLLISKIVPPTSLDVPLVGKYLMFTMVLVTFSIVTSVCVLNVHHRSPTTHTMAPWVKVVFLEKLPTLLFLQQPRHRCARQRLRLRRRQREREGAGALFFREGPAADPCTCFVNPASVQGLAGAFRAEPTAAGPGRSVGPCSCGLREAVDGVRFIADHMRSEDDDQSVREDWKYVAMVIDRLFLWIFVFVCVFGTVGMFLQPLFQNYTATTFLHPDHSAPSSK
- experiment_notes: Determination of Binding to Relevant Receptor Sites
- reported_conditions: calculated from IC50 values using the method of Cheng et al.
- Excerpt: Receptor binding constants provide a measure of the ability of the compound to bind to relevant receptor sites of certain cells of the patient. Determination of Binding to Relevant Receptor Sites
pKi: −log10 of the molar value.
Listed below: pKi values for each entry.
measured_parameter: pKi

{"compound": "NCC/C=C/c1cncc(Br)c1", "assay_result": 6.15}
{"compound": "CNCC/C=C/c1cncc(Br)c1", "assay_result": 7.10}
{"compound": "CCOc1cncc(/C=C/CCNC)c1", "assay_result": 8.05}
{"compound": "CNCC/C=C/c1cncc(OC)c1", "assay_result": 8.00}
{"compound": "CNC(C)C/C=C/c1cccnc1 (centres unmarked)", "assay_result": 7.09}

====

- System: ganglionic receptors
- experiment_notes: Determination of Interaction with Ganglia (maximal activation of ganglionic receptors)
- Type: cell-based
- reported_conditions: percentage of the maximal activation induced by (S)-(-)-nicotine
measured_parameter: Ganglion Effect (Emax)

{"molecule": "CCOc1cncc(/C=C/CCNC)c1 [Sample No. 19]", "assay_result": "< 15 % nicotine"}
{"molecule": "CNCC/C=C/c1cncc(Oc2ccccc2)c1 [Sample No. 15]", "assay_result": "< 15 % nicotine"}
{"molecule": "CNCC/C=C/c1cncc(OC(C)C)c1 [Sample No. 16]", "assay_result": "< 15 % nicotine"}

====

Listed below: Emax values for each entry.
- Test system: β2-containing nicotinic acetylcholine receptor subtypes
- experiment_notes: Determination of Dopamine Release (synaptosomes)
- Type: cell-based
- reported_conditions: read-out: Dopamine Release Emax, percentage of release obtained with (S)-(-)-nicotine concentration resulting in maximal effects
measured_parameter: Emax (%)

{"molecule": "CNCC/C=C/c1cncc(N)c1 [Sample No. 5]", "value_prefix": "=", "assay_result": 85}
{"molecule": "CNCC/C=C/c1cncc(OCc2ccccc2)c1 [Sample No. 6]", "value_prefix": "=", "assay_result": 33}
{"molecule": "CNCC/C=C/c1cncc(-c2ccccc2)c1 [Sample No. 3]", "value_prefix": ">", "assay_result": 160}
{"molecule": "CNCC/C=C/c1cncc(Oc2ccccc2)c1 [Sample No. 15]", "value_prefix": "=", "assay_result": 14}
{"molecule": "CNCC/C=C/c1cncc(OC)c1 [Sample No. 8]", "value_prefix": "=", "assay_result": 103}
